Source: patent US9975896B2

- System Tested: UniProtKB O60885
- Assay Protocol: In vitro AlphaScreen protein binding assay (competition with biotinylated JQ1)
- Condition Summary: read-out: BRD4--IC50; Table 7; biochemical
Endpoint Label: IC50 (µM)
Enter your answer as a number in µM; do not include the unit.

Worked examples, 4 compounds total:
Prompt: Give IC50 for the following compound: COc1cc(-c2c(C)noc2C)ccc1-c1nc2cnccn2c1NC(C)(C)C [Compound 39a]
Completion: 0.562

Prompt: Give IC50 for the following compound: Cc1noc(C)c1-c1ccc(-c2nc3cnccn3c2NC(C)(C)C)nc1 [UMB54]
Completion: 12.9

Prompt: Give IC50 for the following compound: COc1cc(-c2c(C)noc2C)ccc1-c1nc2cnccn2c1NC(C)C [Compound 40a]
Completion: 0.474

Prompt: Give IC50 for the following compound: Cc1noc(C)c1-c1ccc(-c2nc3cnccn3c2NC(C)(C)C)cc1F [UMB55]
Completion: 13

Attention now turns to another entry.
Prompt: Give IC50 for the following compound: Cc1noc(C)c1-c1ccc(-c2nc3cnccn3c2NC(C)(C)C)cn1 [UMB53]
Completion: 51.9

###

- System Tested: BAZ2A (Homo sapiens, UniProt Q9UIF9)
- Sequence (Q9UIF9 1796-1899 limits assumed): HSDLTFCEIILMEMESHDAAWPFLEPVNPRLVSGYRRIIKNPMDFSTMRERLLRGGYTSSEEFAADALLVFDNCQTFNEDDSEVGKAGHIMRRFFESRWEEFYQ
- Assay Protocol: BromoScan selectivity panel (Kd)
- Assay type: binding
pKd: −log10 of the molar value.
Each entry below carries its reported pKd.

Prompt: Give pKd for the following molecule: Cc1sc2c(c1C)C(c1ccc(Cl)cc1)=NC(CC(=O)OC(C)(C)C)c1nnc(C)n1-2 (centres unmarked) [JQ1, reference compound]
Completion: ≤ 4.40

Attention now turns to another entry.
Prompt: Give pKd for the following molecule: CCNC(=O)C[C@@H]1N=C(c2ccc(Cl)cc2)c2cc(OC)ccc2-n2c(C)nnc21 [I-BET, reference compound]
Completion: ≤ 4.40

###

- System Tested: BRDT(1) (Homo sapiens)
- Construct: the bromodomain-containing protein is BRDT(1)
- Assay Protocol: BromoScan selectivity panel (Kd)
- Assay type: binding
- Condition Summary: Table 9; read-out: BromoScan Kd, nM BRDT(1)
Endpoint Label: Kd (nM)
Enter your answer as a number in nM; do not include the unit.

Prompt: Give Kd for the following molecule: Cc1noc(C)c1-c1ccc(-c2nc3cnccn3c2NC(C)(C)C)cc1 [UMB32]
Completion: 110

###

- System Tested: BRD4(2) (Homo sapiens, UniProt O60885)
- Construct: the bromodomain-containing protein is BRD4(2)
- Assay Protocol: BromoScan selectivity panel (Kd)
- Format: binding
- Condition Summary: Table 8; read-out: Kd (nM) BRD4(2)
Endpoint Label: Kd (nM)
Enter your answer as a number in nM; do not include the unit.

Prompt: Using BRD4(2) (Homo sapiens, UniProt O60885) as the test system, report measured Kd of Cc1noc(C)c1-c1ccc(-c2nc3cnccn3c2NC(C)(C)C)cc1 .
Completion: 31

###

- System Tested: TAF1(2) (Homo sapiens, UniProt P21675)
- Construct: TAF1(2)
- Sequence (P21675 1519-1628 limits assumed): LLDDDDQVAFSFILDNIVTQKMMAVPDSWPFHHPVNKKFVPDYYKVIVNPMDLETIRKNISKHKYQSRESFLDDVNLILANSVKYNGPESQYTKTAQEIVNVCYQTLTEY
- Assay Protocol: BromoScan selectivity panel (Kd)
- Assay type: binding
pKd: −log10 of the molar value.
Endpoint Label: pKd

Prompt: Give pKd for the following molecule: CCNC(=O)C[C@@H]1N=C(c2ccc(Cl)cc2)c2cc(OC)ccc2-n2c(C)nnc21 [I-BET, reference compound]
Completion: ≤ 4.40

###

Each entry below carries its reported Kd.
- System Tested: TRIM24(PHD Bromo.) (Homo sapiens, UniProt O15164)
- Construct: TRIM24(PHD Bromo.)
- Sequence (O15164 824-1006 limits assumed): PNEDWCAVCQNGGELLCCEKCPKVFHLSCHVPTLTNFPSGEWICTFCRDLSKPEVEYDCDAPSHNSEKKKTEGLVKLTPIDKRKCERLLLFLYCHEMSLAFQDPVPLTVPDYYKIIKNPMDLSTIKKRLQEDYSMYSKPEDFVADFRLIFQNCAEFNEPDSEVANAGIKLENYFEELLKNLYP
- Assay Protocol: BromoScan selectivity panel (Kd)
- Format: binding

Prompt: Using TRIM24(PHD Bromo.) (Homo sapiens, UniProt O15164) as the test system, report measured Kd of Cc1sc2c(c1C)C(c1ccc(Cl)cc1)=NC(CC(=O)OC(C)(C)C)c1nnc(C)n1-2 (centres unmarked) [JQ1, reference compound] .
Completion: ≥ 40 µM

Attention now turns to another entry.
Prompt: Using TRIM24(PHD Bromo.) (Homo sapiens, UniProt O15164) as the test system, report measured Kd of CCNC(=O)C[C@@H]1N=C(c2ccc(Cl)cc2)c2cc(OC)ccc2-n2c(C)nnc21 [I-BET, reference compound] .
Completion: ≥ 40 µM

###

- System Tested: BRDT(1) (Homo sapiens)
- Construct: the bromodomain-containing protein is BRDT(1)
- Assay Protocol: BromoScan selectivity panel (Kd)
- Format: binding
Endpoint Label: Kd (µM)
Enter your answer as a number in µM; do not include the unit.

Prompt: Using BRDT(1) (Homo sapiens) as the test system, report measured Kd of CCNC(=O)C[C@@H]1N=C(c2ccc(Cl)cc2)c2cc(OC)ccc2-n2c(C)nnc21 [I-BET, reference compound] .
Completion: 0.16

###

- System Tested: UniProtKB Q92793
- Sequence (Q92793 1081-1197 limits assumed): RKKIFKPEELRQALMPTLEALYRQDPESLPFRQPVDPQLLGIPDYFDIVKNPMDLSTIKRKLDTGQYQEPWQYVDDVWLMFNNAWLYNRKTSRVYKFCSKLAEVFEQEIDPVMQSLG
- Assay Protocol: BromoScan selectivity panel (Kd)
- Condition Summary: read-out: Kd (nM) CBP; Table 8
Endpoint Label: Kd

Prompt: Give Kd for the following compound: Cc1noc(C)c1-c1ccc(-c2nc3cnccn3c2NC(C)(C)C)cc1
Completion: 4500 nM

###

- Tested on: BRD4-dependent Nut-Midline Carcinoma line 797
- Assay Protocol: Cell viability (ATPlite) in BRD4 dependant cell line 797
- Condition Summary: Homo sapiens, read-out: 797--EC50 (μM)
Each entry below carries its reported EC50.
Enter your answer as a number in µM; do not include the unit.

Worked examples, 3 compounds total:
Prompt: Give EC50 for the following compound: Cc1noc(C)c1-c1ccc(-c2nc3ccccn3c2NC(C)(C)C)cc1
Completion: 2.04

Prompt: Give EC50 for the following compound: COc1ccc(Nc2c(-c3ccc(-c4c(C)noc4C)cc3)nc3cc(OC)ncn23)cc1
Completion: 11.8

Prompt: Give EC50 for the following compound: COc1ccc(Nc2c(-c3ccc(-c4c(C)noc4C)cc3)nc3ccccn23)cc1
Completion: 7.36

New cases:
Prompt: Give EC50 for the following compound: Cc1noc(C)c1-c1ccc(-c2nc3cnccn3c2NCc2ccccc2)cc1
Completion: 49.1
